Numbers sourced from patent US8476253B2.

target-or-system: human M3 receptor (Homo sapiens, UniProt P20309)
Construct: expressed in transfected cells; host or cells: CHO cells
Sequence (P20309 whole entry): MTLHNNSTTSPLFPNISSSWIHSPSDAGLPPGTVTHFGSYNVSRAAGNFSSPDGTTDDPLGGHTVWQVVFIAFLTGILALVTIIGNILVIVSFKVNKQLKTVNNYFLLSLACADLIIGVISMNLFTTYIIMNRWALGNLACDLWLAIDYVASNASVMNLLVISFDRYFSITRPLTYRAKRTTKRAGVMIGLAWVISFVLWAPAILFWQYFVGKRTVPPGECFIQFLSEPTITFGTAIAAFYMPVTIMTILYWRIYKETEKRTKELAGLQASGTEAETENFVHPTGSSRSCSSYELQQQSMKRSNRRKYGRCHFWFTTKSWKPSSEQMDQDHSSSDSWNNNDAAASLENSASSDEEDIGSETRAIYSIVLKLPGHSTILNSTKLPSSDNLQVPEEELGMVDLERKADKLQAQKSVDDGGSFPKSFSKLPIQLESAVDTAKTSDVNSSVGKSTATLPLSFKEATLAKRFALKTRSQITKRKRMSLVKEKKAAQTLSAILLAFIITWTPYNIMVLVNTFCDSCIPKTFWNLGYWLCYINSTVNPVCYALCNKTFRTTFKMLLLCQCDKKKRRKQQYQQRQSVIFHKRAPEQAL
assay: Test for binding to human M3 receptor
conditions: CHO cells expressing human M3 receptor, [N-methyl-3H]-(-)-Scopolamine methyl chloride 0.5 nM; Ki from IC50 and Kd; read-out: Ki
pKi: −log10 of the molar value.
Mark no for pKi values under 9, and yes for everything at or above.

See these solved cases before continuing.
Q: Threshold query (pKi >= 9) on "CN(CCN1CCC(OC(=O)Nc2ccccc2-c2ccccc2)CC1)C(=O)CCCCCN(C)c1ccc(C(=O)N(C)CCCN(C)C(=O)CO[C@H]2Cc3ccccc3C23CCN(CC[C@@]2(c4ccc(F)cc4)CN(C(=O)c4cc(C(F)(F)F)cc(C(F)(F)F)c4)CO2)CC3)s1"
Result: no

Q: Threshold query (pKi >= 9) on "CN(CCN1CCC(OC(=O)Nc2ccccc2-c2ccccc2)CC1)C(=O)CCCCCN(C)c1ccc(C(=O)N(C)CCCN(C)C(=O)CO[C@H]2Cc3ccccc3C23CCN(CC[C@@]2(c4ccc(F)cc4)CN(C(=O)c4cc(C(F)(F)F)cc(C(F)(F)F)c4)CO2)CC3)cc1"
Result: no

Q: Threshold query (pKi >= 9) on "CN(CCN1CCC(OC(=O)Nc2ccccc2-c2ccccc2)CC1)C(=O)CCCCCNc1ccc(C(=O)N(C)CCCN(C)C(=O)CO[C@H]2Cc3ccccc3C23CCN(CC[C@@]2(c4ccc(F)cc4)CN(C(=O)c4cc(C(F)(F)F)cc(C(F)(F)F)c4)CO2)CC3)s1"
Result: no

Q: Threshold query (pKi >= 9) on "CN(CCN1CCC(OC(=O)Nc2ccccc2-c2ccccc2)CC1)C(=O)CCNc1ccc(C(=O)N(C)CCCN(C)C(=O)CO[C@H]2Cc3ccccc3C23CCN(CC[C@@]2(c4ccc(F)cc4)CN(C(=O)c4cc(C(F)(F)F)cc(C(F)(F)F)c4)CO2)CC3)cc1"
Result: no

Q: Threshold query (pKi >= 9) on "CN(CCN1CCC(OC(=O)Nc2ccccc2-c2ccccc2)CC1)C(=O)CCCCCNCc1ccc(C(=O)N(C)CCCN(C)C(=O)CO[C@H]2Cc3ccccc3C23CCN(CC[C@@]2(c4ccc(F)cc4)CN(C(=O)c4cc(C(F)(F)F)cc(C(F)(F)F)c4)CO2)CC3)cc1"
Result: yes

Continue with the compound presented below.
Q: Threshold query (pKi >= 9) on "CN(CCN1CCC(OC(=O)Nc2ccccc2-c2ccccc2)CC1)C(=O)CCN(C)c1ccc(C(=O)N(C)CCCN(C)C(=O)CO[C@H]2Cc3ccccc3C23CCN(CC[C@@]2(c4ccc(F)cc4)CN(C(=O)c4cc(C(F)(F)F)cc(C(F)(F)F)c4)CO2)CC3)cc1"
Result: no

* * *

target-or-system: human NK2 receptor (Homo sapiens)
Construct: expressed in transfected cells; host or cells: COS cells
Sequence (P21452 whole entry): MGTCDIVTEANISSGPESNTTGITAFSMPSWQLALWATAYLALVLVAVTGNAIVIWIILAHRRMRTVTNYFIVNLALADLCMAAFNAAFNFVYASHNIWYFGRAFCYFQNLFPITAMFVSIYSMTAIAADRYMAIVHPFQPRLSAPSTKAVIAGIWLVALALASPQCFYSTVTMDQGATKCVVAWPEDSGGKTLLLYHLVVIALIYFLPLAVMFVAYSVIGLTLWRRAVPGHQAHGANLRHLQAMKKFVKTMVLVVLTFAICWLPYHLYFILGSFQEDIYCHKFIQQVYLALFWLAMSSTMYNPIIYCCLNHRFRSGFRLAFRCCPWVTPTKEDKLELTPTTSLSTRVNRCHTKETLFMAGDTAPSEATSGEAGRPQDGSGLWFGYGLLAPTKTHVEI
assay: Test for binding to human NK2 receptor
conditions: COS cells expressing human NK2 receptor, [3H]SR 48968 1 nM; Ki from IC50 and Kd; read-out: Ki
Documented pKi across a set of molecules
The meaning of pKi here: minus log10 of the concentration in molar units.

// worked examples, pKi included
The measured pKi associated with CN(CCN1CCC(OC(=O)Nc2ccccc2-c2ccccc2)CC1)C(=O)CCCCCNCc1ccc(C(=O)N(C)CCCN(C)C(=O)CO[C@H]2Cc3ccccc3C23CCN(CC[C@@]2(c4ccc(F)cc4)CN(C(=O)c4cc(C(F)(F)F)cc(C(F)(F)F)c4)CO2)CC3)s1 [Example 1] reads 9.24

The measured pKi associated with CN(CCCCCC(=O)N(C)CCN1CCC(OC(=O)Nc2ccccc2-c2ccccc2)CC1)Cc1ccc(C(=O)N(C)CCCN(C)C(=O)CO[C@H]2Cc3ccccc3C23CCN(CC[C@@]2(c4ccc(F)cc4)CN(C(=O)c4cc(C(F)(F)F)cc(C(F)(F)F)c4)CO2)CC3)nc1 [Example 5] reads 9.32

The measured pKi associated with CN(CCN1CCC(OC(=O)Nc2ccccc2-c2ccccc2)CC1)C(=O)CCCCCN(C)c1ccc(C(=O)N(C)CCCN(C)C(=O)CO[C@H]2Cc3ccccc3C23CCN(CC[C@@]2(c4ccc(F)cc4)CN(C(=O)c4cc(C(F)(F)F)cc(C(F)(F)F)c4)CO2)CC3)s1 [Example 8] reads 9.42

Proceeding to the next molecule to report its pKi.
The measured pKi associated with CN(CCN1CCC(OC(=O)Nc2ccccc2-c2ccccc2)CC1)C(=O)CCCCCNc1ccc(C(=O)N(C)CCCN(C)C(=O)CO[C@H]2Cc3ccccc3C23CCN(CC[C@@]2(c4ccc(F)cc4)CN(C(=O)c4cc(C(F)(F)F)cc(C(F)(F)F)c4)CO2)CC3)nc1 [Example 9] reads 9.18

* * *

target-or-system: human M3 receptor (Homo sapiens)
Construct: expressed in transfected cells; host or cells: CHO cells
assay: Test for binding to human M3 receptor
conditions: CHO cells expressing human M3 receptor, [N-methyl-3H]-(-)-Scopolamine methyl chloride 0.5 nM; Ki from IC50 and Kd; read-out: Ki
Where a name gives a salt, the structure may show the parent alone.
Documented pKi across a set of compounds
The meaning of pKi here: minus log10 of the concentration in molar units.

// worked examples, pKi included
The measured pKi associated with CN(CCCCCC(=O)N(C)CCN1CCC(OC(=O)Nc2ccccc2-c2ccccc2)CC1)Cc1ccc(C(=O)N(C)CCCN(C)C(=O)CO[C@H]2Cc3ccccc3C23CCN(CC[C@@]2(c4ccc(F)cc4)CN(C(=O)c4cc(C(F)(F)F)cc(C(F)(F)F)c4)CO2)CC3)cc1 [Example 74] reads 9.49

The measured pKi associated with CN(CCN1CCC(OC(=O)Nc2ccccc2-c2ccccc2)CC1)C(=O)CCCCN(C)c1ccc(C(=O)N(C)CCCN(C)C(=O)CO[C@H]2Cc3ccccc3C23CCN(CC[C@@]2(c4ccc(F)cc4)CN(C(=O)c4cc(C(F)(F)F)cc(C(F)(F)F)c4)CO2)CC3)cc1 [Example 38, trihydrochloride] reads 8.74

The measured pKi associated with CN(CCCCCC(=O)N(C)CCN1CCC(OC(=O)Nc2ccccc2-c2ccccc2)CC1)Cc1ccc(C(=O)N(C)CCCN(C)C(=O)CO[C@H]2Cc3ccccc3C23CCN(CC[C@@]2(c4ccc(F)cc4)CN(C(=O)c4cc(C(F)(F)F)cc(C(F)(F)F)c4)CO2)CC3)nc1 [Example 5] reads 9.16

Proceeding to the next compound to report its pKi.
The measured pKi associated with CN(CCN1CCC(OC(=O)Nc2ccccc2-c2ccccc2)CC1)C(=O)CCCCCNc1nc2ccc(C(=O)N(C)CCCN(C)C(=O)CO[C@H]3Cc4ccccc4C34CCN(CC[C@@]3(c5ccc(F)cc5)CN(C(=O)c5cc(C(F)(F)F)cc(C(F)(F)F)c5)CO3)CC4)cc2s1 [Example 93] reads 9.22

* * *

target-or-system: neurokinin NK1 receptor (Cavia porcellus, UniProt P30547)
Construct: Using healthy guinea pigs (body weight, 350 to 550 g; Hartley male guinea pigs); from tissue; host or cells: live anaesthetised Hartley male guinea pigs (airway, in vivo)
Sequence (P30547 whole entry): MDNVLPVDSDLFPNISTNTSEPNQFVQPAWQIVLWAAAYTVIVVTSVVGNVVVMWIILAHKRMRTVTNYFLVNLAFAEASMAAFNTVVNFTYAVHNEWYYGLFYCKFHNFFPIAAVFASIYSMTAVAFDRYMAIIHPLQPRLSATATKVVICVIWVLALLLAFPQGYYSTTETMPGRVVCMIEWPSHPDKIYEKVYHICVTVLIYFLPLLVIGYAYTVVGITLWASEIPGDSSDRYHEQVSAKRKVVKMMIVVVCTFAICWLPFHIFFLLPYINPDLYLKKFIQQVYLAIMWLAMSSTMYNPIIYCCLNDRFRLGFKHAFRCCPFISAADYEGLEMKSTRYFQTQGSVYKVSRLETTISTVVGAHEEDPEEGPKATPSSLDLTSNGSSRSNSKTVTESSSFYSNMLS
assay: Effect of suppressing substance P-induced airway contraction (in vivo, intratracheal administration)
Parameters: species or system guinea pig
conditions: guinea pig; guinea pigs, intratracheal administration 60 minutes before 20 μg/kg i.v. SP; AUC of increase in airway pressure over 10 minutes; read-out: ID50 (the source's name)
Counter-ions that a name gives are not always drawn.
property-name: ED50 (mg/kg)
The reply should be a number in mg/kg, with the unit left off.

The measured ED50 associated with "CN(CCN1CCC(OC(=O)Nc2ccccc2-c2ccccc2)CC1)C(=O)CCN(C)c1ccc(C(=O)N(C)CCCN(C)C(=O)CO[C@H]2Cc3ccccc3C23CCN(CC[C@@]2(c4ccc(F)cc4)CN(C(=O)c4cc(C(F)(F)F)cc(C(F)(F)F)c4)CO2)CC3)cc1" reads 0.0225

The measured ED50 associated with Cc1nc(NCCCCCC(=O)N(C)CCN2CCC(OC(=O)Nc3ccccc3-c3ccccc3)CC2)sc1C(=O)N(C)CCCN(C)C(=O)CO[C@H]1Cc2ccccc2C12CCN(CC[C@@]1(c3ccc(F)cc3)CN(C(=O)c3cc(C(F)(F)F)cc(C(F)(F)F)c3)CO1)CC2 [Example 105, trihydrochloride] reads 0.0273

Proceeding to the next compound to report its ED50.
The measured ED50 associated with CN(CCN1CCC(OC(=O)Nc2ccccc2-c2ccccc2)CC1)C(=O)CCCNc1ccc(C(=O)N(C)CCCN(C)C(=O)CO[C@H]2Cc3ccccc3C23CCN(CC[C@@]2(c4ccc(F)cc4)CN(C(=O)c4cc(C(F)(F)F)cc(C(F)(F)F)c4)CO2)CC3)cc1 [Example 34, trihydrochloride] reads 0.0308

* * *

target-or-system: human M3 receptor (Homo sapiens, UniProt P20309)
Construct: expressed in transfected cells; host or cells: CHO cells
assay: Test for binding to human M3 receptor
Protocol: A solution of cryopreserved CHO cells expressing human M3 receptor was diluted with a buffer (50 mM tris-hydrochloride containing 0.5 mM of EDTA, pH 7.4) to obtain 5.0×10^5 of cells/mL and used as a crude membrane sample. […]
Where a name gives a salt, the structure may show the parent alone.
property-name: Ki (nM)
The reply should be a number in nM, with the unit left off.

The measured Ki associated with CN(CCN1CCC(OC(=O)Nc2ccccc2-c2ccccc2)CC1)C(=O)CCCCCNc1ccc(C(=O)N(C)CCN(C)C(=O)CO[C@H]2Cc3ccccc3C23CCN(CC[C@@]2(c4ccc(F)cc4)CN(C(=O)c4cc(C(F)(F)F)cc(C(F)(F)F)c4)CO2)CC3)cc1 [Example 16, trihydrochloride] reads 2.4

Proceeding to the next compound to report its Ki.
The measured Ki associated with CN(CCN1CCC(OC(=O)Nc2ccccc2-c2ccccc2)CC1)C(=O)CCCCCNc1nc(CC(=O)N(C)CCCN(C)C(=O)CO[C@H]2Cc3ccccc3C23CCN(CC[C@@]2(c4ccc(F)cc4)CN(C(=O)c4cc(C(F)(F)F)cc(C(F)(F)F)c4)CO2)CC3)cs1 [Example 88, trihydrochloride] reads 0.31
